Overview of recorded GI50 for various compounds
molecular target: Ba/F3-EGFR-E746_A750del T790M cells (Homo sapiens, UniProt P00533, DEL746-750/T790M, cells depend on it); experiment: Ba/F3 cell survival assay (Cell Titer-Glo), EGFR-E746_A750del T790M; assay type: cell-based; conditions: 48 h, without IL-3, 10 ng/mL EGF; read-out: BA/F3 (E746_A750del T790M) IC50
Sequence (P00533 with tags, fused parts or gaps DEL746-750/T790M): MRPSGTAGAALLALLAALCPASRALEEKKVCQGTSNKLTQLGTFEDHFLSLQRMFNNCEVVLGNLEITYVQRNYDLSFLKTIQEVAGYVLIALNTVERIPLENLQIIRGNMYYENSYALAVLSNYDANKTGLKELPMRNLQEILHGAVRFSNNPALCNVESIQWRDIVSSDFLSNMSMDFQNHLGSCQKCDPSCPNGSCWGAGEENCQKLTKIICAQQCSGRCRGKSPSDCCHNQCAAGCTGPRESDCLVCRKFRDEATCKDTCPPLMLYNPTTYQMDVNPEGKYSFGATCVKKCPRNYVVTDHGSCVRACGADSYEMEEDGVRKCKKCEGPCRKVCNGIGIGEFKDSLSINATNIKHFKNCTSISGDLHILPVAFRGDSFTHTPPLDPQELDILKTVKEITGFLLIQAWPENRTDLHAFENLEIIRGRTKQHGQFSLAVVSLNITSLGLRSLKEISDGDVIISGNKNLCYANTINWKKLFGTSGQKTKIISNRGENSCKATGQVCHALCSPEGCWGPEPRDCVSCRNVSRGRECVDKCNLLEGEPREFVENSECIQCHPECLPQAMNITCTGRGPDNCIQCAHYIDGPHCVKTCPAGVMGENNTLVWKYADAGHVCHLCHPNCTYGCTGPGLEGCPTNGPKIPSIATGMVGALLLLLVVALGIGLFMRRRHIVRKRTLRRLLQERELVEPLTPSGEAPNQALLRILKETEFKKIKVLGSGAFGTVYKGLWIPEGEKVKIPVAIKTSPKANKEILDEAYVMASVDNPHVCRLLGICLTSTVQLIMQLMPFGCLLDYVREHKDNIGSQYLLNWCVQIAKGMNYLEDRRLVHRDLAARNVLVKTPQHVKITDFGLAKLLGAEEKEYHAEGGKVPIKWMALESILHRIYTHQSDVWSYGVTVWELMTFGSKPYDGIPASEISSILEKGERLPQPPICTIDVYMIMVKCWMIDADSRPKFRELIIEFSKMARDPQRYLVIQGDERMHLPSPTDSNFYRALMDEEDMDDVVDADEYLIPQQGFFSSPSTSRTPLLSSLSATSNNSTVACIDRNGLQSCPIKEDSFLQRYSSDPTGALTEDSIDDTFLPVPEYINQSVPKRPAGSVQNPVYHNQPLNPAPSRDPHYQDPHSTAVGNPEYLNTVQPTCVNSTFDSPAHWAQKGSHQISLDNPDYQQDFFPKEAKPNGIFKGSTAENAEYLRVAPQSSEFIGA
metric name: GI50 (nM)

INSERT INTO measurements (smiles_entry, measure_unit, relation_symbol, reading) VALUES
  ('C=CC(=O)NCCCOc1cnccc1-c1[nH]c2c(c1Nc1cccc(Cl)c1OC)C(=O)NCC2', 'nM', '>', 1000),
  ('C=CC(=O)N(C)CCOc1cnccc1-c1[nH]c2c(c1Nc1cccc(Cl)c1OC)C(=O)NC(C)(C)C2', 'nM', '=', 47.4),
  ('C=CC(=O)N(C)CCOc1cnccc1-c1[nH]c2c(c1Nc1cccc(Cl)c1OC)C(=O)NC1(CCC1)C2', 'nM', '=', 25.8),
  ('COc1c(Cl)cccc1Nc1c(-c2ccncc2OCCN(C)C(=O)/C=C/CN(C)C)[nH]c2c1C(=O)NCC2', 'nM', '=', 183),
  ('C=CC(=O)NCCOc1cnccc1-c1[nH]c2c(c1Nc1cccc(Cl)c1OC)C(=O)NCC2', 'nM', '>', 1000),
  ('C=CC(=O)NCCOc1cnccc1-c1[nH]c2c(c1Nc1cccc(Cl)c1C)C(=O)NCC2', 'nM', '=', 32.6),
  ('COc1c(Cl)cccc1Nc1c(-c2ccncc2OCCN(C)C(=O)/C=C/CN(C)C)[nH]c2c1C(=O)NC1(CCC1)C2', 'nM', '=', 651),
  ('C=CC(=O)N(C)CCOc1cnccc1-c1[nH]c2c(c1Nc1ccccc1OC(F)F)C(=O)NCC2', 'nM', '=', 29.1),
  ('C=CC(=O)N(C)CCOc1cnccc1-c1[nH]c2c(c1Nc1ccc(F)cc1)C(=O)NCC2', 'nM', '=', 21.9),
  ('C=CC(=O)NCCOc1cnccc1-c1[nH]c2c(c1Nc1cccc(F)c1C)C(=O)NCC2', 'nM', '=', 25.2),
  ('C=CC(=O)N(C)CCOc1cnccc1-c1[nH]c2c(c1Nc1cccc(F)c1OC)C(=O)NCC2', 'nM', '=', 4.96),
  ('COc1c(F)cccc1Nc1c(-c2ccncc2OCCN(C)C(=O)/C=C/CN(C)C)[nH]c2c1C(=O)NCC2', 'nM', '=', 370),
  ('C=CC(=O)N(C)CCOc1cnccc1-c1[nH]c2c(c1Nc1cccc(Cl)c1OC)C(=O)NCC2', 'nM', '=', 3.39);
